System: Enterococcus faecium
Assay: The compound was tested for its antimicrobial activity against Streptococcus faecium ATCC 8043 (Sf) strain
Assay type: functional
Conditions: Enterococcus faecium, ATCC 8043; read-out: MIC
measurement label: MIC (µg/mL)

molecule=O=C(O)c1cn(C2CC2)c2cc(N3CCNCC3)c(F)cc2c1=O units_text=µg/mL reported_result=0.39
molecule="O=C(O)c1cn(C2C[C@@H]2c2ccccc2)c2cc(N3CCNCC3)c(F)cc2c1=O (some centres undefined)" units_text=µg/mL reported_result=1.56
molecule="O=C(O)c1cn(C2C[C@H]2c2ccccc2)c2cc(N3CCNCC3)c(F)cc2c1=O (stereo in doubt; 5)" units_text=µg/mL reported_result=6.2
molecule=CCn1cc(C(=O)O)c(=O)c2cc(F)c(N3CCNCC3)cc21 units_text=µg/mL reported_result=0.78
